molecular target: UniProt V5T6E3; experiment: biochemical; assay type: binding; conditions: SfurOBP11; protein and 1-NPN both 2.0 µM; competitor 2-20 µM; read-out: IC50
pIC50: −log10 of the molar value.
MEASUREMENT LABEL: pIC50

Below, 8 compounds whose answers are already recorded.
Cc1cc(C(C)(C)C)c(O)c(C(C)(C)C)c1 [2,6-di-tert-butyl-4-methylphenol] = 4.74
CCCCCCCCCCCCCC [n-tetradecane] = < 4.70
CC(=O)c1ccccc1 [acetophenone] = < 4.70
CCCCCCCCC=O [nonanal] = < 4.70
CC(C)COC(=O)CCCCC(=O)OCC(C)C [diisobutyl adipate] = < 4.70
CCCCCCCC=O [octanal] = < 4.70
C=CC(C)(O)CCC=C(C)CCC=C(C)C (mixture of isomers) [nerolidol] = < 4.70
CCCCCCCCCCCCO [lauryl alcohol] = < 4.70

Request: Give its pIC50 value. Item: C=C/C(C)=C/C/C=C(\C)CCC=C(C)C [α-farnesene]
Result: < 4.70

Request: Endpoint output: pIC50 of CCCCCCCCCCC [n-hendecane] . Value?
Result: < 4.70

---

target: SfurOBP11 (Sogatella furcifera, UniProt V5T6E3); assay: biochemical; assay type: binding; conditions: ligand concentration 2, replicate 1
Sequence (V5T6E3 entry or part of it): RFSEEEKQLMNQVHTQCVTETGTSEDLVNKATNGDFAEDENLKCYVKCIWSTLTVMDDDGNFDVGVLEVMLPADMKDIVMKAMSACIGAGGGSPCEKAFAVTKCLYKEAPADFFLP
Overview of recorded Fluorescence intensity, fluorescence competitive binding assay, OBP11 for various compounds
// no unit string in output, number only

These solved cases illustrate the format of a correct answer.
C=C(C)C1CC=C(C)CC1 (single isomer, unassigned; (+)) [(+)-limonene] = 20185
CCCCCCCC = 29315
CCC/C=C/CO [(E)-2-hexenol] = 34795
CCCCCCCCCCCCCCCCCC = 31124
C=CC(C)(O)CCC=C(C)C (stereo not shown) = 34595
CCCCCCCCC=O = 31191
O=Cc1ccccc1 = 25700
C=CC(C)(O)CCC=C(C)CCC=C(C)C (mixture of isomers) = 32108

Request: Requested read-out: Fluorescence intensity, fluorescence competitive binding assay, OBP11. Entry: CCCCCCCCCCCCO
Result: 24217

Request: // Fluorescence intensity, fluorescence competitive binding assay, OBP11 lookup, key: CC1=CC[C@@H](C(C)(C)O)CC1
Result: 29252

Request: Give its Fluorescence intensity, fluorescence competitive binding assay, OBP11 value. Item: CCCCCCCCCCC
Result: 27436

Request: Which Fluorescence intensity, fluorescence competitive binding assay, OBP11 is reported for this compound? Cc1cc(C(C)(C)C)c(O)c(C(C)(C)C)c1
Result: 23825

---

molecular target: SfurOBP11 (Sogatella furcifera); assay: biochemical; assay type: binding; settings: ligand concentration 16, replicate 1
# note: exactly 20000 is not below, so it is Condition not met; use Condition met for Fluorescence intensity, fluorescence competitive binding assay, OBP11 strictly under it

CCCCCCCCCCCCO = Condition met
OC1CCCCC1 = Condition not met
C=CC(C)(O)CCC=C(C)C (stereo not shown) = Condition not met
CCCCCCCCCCCCCCCCCCC = Condition not met
O=C(c1ccccc1)c1ccccc1 = Condition met
CCCCCCCCCCCCC=O = Condition not met
c1ccc2ccccc2c1 = Condition not met

Read the next record carefully.
Request: Hello, I'm reviewing records and need to know if Fluorescence intensity, fluorescence competitive binding assay, OBP11 of CCCCCC=O is below 20000. Could you check?
Result: Condition met

Data credit: paper PMC6409085
